compounds and their reported Emax
- target desc: M1 muscarinic receptor (Homo sapiens)
- Construct: expressed in transfected cells; host or cells: CHO (M1-CHO)
- Sequence (P11229 whole entry): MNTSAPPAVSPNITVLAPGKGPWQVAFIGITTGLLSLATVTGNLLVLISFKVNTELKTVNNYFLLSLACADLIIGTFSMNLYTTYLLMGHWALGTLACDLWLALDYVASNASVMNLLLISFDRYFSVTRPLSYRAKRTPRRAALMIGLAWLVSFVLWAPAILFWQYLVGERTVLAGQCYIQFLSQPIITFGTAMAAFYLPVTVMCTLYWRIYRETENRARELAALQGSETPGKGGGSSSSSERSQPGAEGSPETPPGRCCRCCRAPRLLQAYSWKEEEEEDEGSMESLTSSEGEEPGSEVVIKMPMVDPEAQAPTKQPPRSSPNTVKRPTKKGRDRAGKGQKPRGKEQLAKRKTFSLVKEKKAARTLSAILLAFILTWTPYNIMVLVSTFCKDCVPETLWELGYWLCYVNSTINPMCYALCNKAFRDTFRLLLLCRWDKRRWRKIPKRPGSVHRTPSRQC
- test: Functional mobilization of intracellular calcium (FLIPR) in M1-CHO cells
- Format: cell-based
- condition set: Table 4; 100% efficacy is the maximum response obtained with the Carbachol control

Previously resolved entries follow.
[
  {
    "compound": "CCOC(=O)N1CCC(N2CCC3(CC2)CN(C(C)=O)c2c(-c4ccoc4)cccc23)CC1 [compound 559]",
    "target desc": "M1 muscarinic receptor (Homo sapiens)",
    "test result": "25 to 100%"
  },
  {
    "compound": "COc1cc2c(cc1OC)C1(CCN(C3CCCCC3)CC1)C[C@@H]2NC(C)=O [compound 521]",
    "target desc": "M1 muscarinic receptor (Homo sapiens)",
    "test result": "< 25%"
  },
  {
    "compound": "CC(=O)N1CC2(CCN(C3CCN(c4ncc(C)s4)CC3)CC2)c2ccccc21 [compound 794]",
    "target desc": "M1 muscarinic receptor (Homo sapiens)",
    "test result": "< 25%"
  }
]

// sample COC(=O)N1CCCC(N2CCC3(CC2)CN(C(=O)N(C)C)c2ccc(F)cc23)CC1 (centres unmarked) [compound 628] , its Emax was 25 to 100%

// sample CC(=O)N[C@H]1CCC2(CCN(C3CC(C)(C)CC(C)(C)C3)CC2)c2ccccc21 [compound 504] , its Emax was < 25%

// sample CC(=O)N[C@H]1CC2(CCN(CC(=O)N3CCOCC3)CC2)c2ccccc21 [compound 480] , its Emax was < 25%

// sample CC#CC(C)OC(=O)N1CCC(N2CCC3(CC2)CN(C(C)=O)c2ccccc23)CC1 (centres unmarked) [compound 589] , its Emax was < 25%

// sample CCOC(=O)N1CCC(N2CCC3(CC2)CN(C(C)=O)c2c(-c4cccc(F)c4)cccc23)CC1 [compound 499] , its Emax was 25 to 100%

----------
- target desc: M4 muscarinic receptor (Homo sapiens, UniProt P08173)
- Construct: expressed in transfected cells; host or cells: CHO (M4-CHO)
- Sequence (P08173 whole entry): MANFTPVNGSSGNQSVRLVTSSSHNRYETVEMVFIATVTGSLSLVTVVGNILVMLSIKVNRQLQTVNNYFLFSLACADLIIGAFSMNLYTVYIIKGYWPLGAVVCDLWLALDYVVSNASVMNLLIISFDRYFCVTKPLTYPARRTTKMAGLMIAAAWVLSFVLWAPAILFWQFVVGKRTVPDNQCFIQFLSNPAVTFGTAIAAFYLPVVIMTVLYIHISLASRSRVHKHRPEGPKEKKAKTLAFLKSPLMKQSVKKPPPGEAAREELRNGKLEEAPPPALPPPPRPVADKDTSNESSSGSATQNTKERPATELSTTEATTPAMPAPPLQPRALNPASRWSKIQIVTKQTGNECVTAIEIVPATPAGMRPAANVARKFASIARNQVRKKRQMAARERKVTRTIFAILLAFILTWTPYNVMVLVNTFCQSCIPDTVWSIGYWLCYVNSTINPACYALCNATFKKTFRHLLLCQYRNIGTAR
- test: Functional mobilization of intracellular calcium (FLIPR) in M4-CHO cells
- Assay type: cell-based
- condition set: CHO cells expressing M4, calcium mobilization; Table 5
pEC50: −log10 of the molar value.
molecules and their reported pEC50

[
  {
    "molecule": "CN(C)C(=O)N1CC2(CCN(C3CCN(c4ccc(F)cc4)CC3)CC2)c2cc(F)ccc21",
    "test result": "> 5.70"
  },
  {
    "molecule": "CN(C)C(=O)N1CC2(CCN(C3CCN(c4ccccc4F)CC3)CC2)c2cc(F)ccc21",
    "test result": "5.00 to 5.70"
  },
  {
    "molecule": "CN(C)C(=O)N1CC2(CCN(C[C@@H]3CCN(c4nccs4)C3)CC2)c2cc(F)ccc21",
    "test result": "> 5.70"
  },
  {
    "molecule": "CN(C)C(=O)N1CC2(CCN(C3CCN(c4cccc(F)c4)CC3)CC2)c2cc(F)ccc21",
    "test result": "> 5.70"
  },
  {
    "molecule": "COc1cccc(N2CCC(N3CCC4(CC3)CN(C(=O)N(C)C)c3ccc(F)cc34)CC2)c1",
    "test result": "> 5.70"
  },
  {
    "molecule": "CC(=O)N1CC2(CCN(C3CCC4(CC3)CC(C)=NO4)CC2)c2cc(F)ccc21 (stereo not drawn)",
    "test result": "5.00 to 5.70"
  },
  {
    "molecule": "COc1ccccc1N1CCC(N2CCC3(CC2)CN(C(=O)N(C)C)c2ccc(F)cc23)CC1",
    "test result": "5.00 to 5.70"
  },
  {
    "molecule": "CN(C)C(=O)N1CC2(CCN(C3CCN(c4ccccn4)CC3)CC2)c2cc(F)ccc21",
    "test result": "> 5.70"
  }
]

// sample `CN(C)C(=O)N1CC2(CCN(C3CCN(c4cccnc4)CC3)CC2)c2cc(F)ccc21` , its pEC50 was > 5.70

// sample `CN(C)C(=O)N1CC2(CCN(C3CCN(c4ncccn4)CC3)CC2)c2cc(F)ccc21` , its pEC50 was > 5.70

// sample `CN(C)C(=O)N1CC2(CCN(C[C@@H]3CCN(c4cnccn4)C3)CC2)c2cc(F)ccc21` , its pEC50 was > 5.70

// sample `CN(C)C(=O)N1CC2(CCN(C3CCN(c4cncnc4)CC3)CC2)c2cc(F)ccc21` , its pEC50 was > 5.70
